- Target entity: AAV5 (adeno-associated virus serotype 5)
- Assay details: SPR, AAV on CM5 chip
Outcome measure: kon
Don't forget the unit after the value.

A4-C4 (bispecific antibody) VQLQESGGGLVQAGGSLRLSCAASGSRFSINTMGWYRQAPGKQREFVATVTRGGNTNYAESVKGRFTISRDNAKNTVYLQMNSLRPEDTAVYYCHVDEVRDSSWTTSNIWGQGTQVTVSSGGGGSGGGGSGGGGSVQLQESGGGLVQAGGSLRLSCAASGSRFSINTMGWYRQAPGKQREFVATVTRGGNTNYAESVKGRFTISRDNAKNTVYLQMNSLRPEDTAVYYCHVDEVRDSSWTTSNIWGQGTQVTVSSGGGGSGGGGSGGGGSVQLQESGGGLVQPGGSLRLSCAASGSNFRINTMGWYRQAPGKQRELVATVTRGGSTNYADSVKGRFTISRDNPKDTVYLQMNSLRPEDTAVYYCHVDEVRESSWTTSNLWGQGTQVTVSS; 180000 M⁻¹ s⁻¹

### Prompt Requested field: kon. Item: A4-C8 (bispecific antibody) VQLQESGGGLVQPGGSLRLSCAASGSNFRINTMGWYRQAPGKQRELVAPVTRGGSTNYADSVKGRFTISRDNAKNTVYLQMNSLRPEDTAVYYCHVDEVRESSWTTSNLWGQGTQVTVSSGGGGSGGGGSGGGGSVQLQESGGGLVQPGGSLRLSCAASGSNFSINTMGWYRQAPGKQRELVATVTRGGDTNYADSVKGRFTISRDNAKNTVYLQMNSLRPEDTAVYYCHVDEIRESSWTTSNLWGQGTQVTVSSGGGGSGGGGSGGGGSVQLQESGGGLVQPGGSLRLSCAASGSNFSINTMGWYRQAPGKQRELVAALTRGGSTNYADSVKGRFTISRDNAKNTVYLQMNSLRPEDTAVYYCHVDEVRESSWTTSNLWGQGTQVTVSS
### Response 188000 M⁻¹ s⁻¹
